- Tested on: SKOV3
- Protocol details: cells
- Type: cell-based, human
- Condition parameters: read-out: GI50 SKOV3 ovary
Parameter measured: GI50 (µM)
One number for each entry, in µM.

In the examples that follow, each entry is paired with its recorded GI50.
Enquiry: Recorded GI50 of CO[C@@H]1[C@@H](OC(N)=O)[C@@H](O)C(N(CCCCc2ccc(N(CCCl)CCCl)cc2)OC)OC1(C)C (stereo partly shown) , please.
Return: 5.4

Enquiry: Recorded GI50 of CON(CCCCc1ccc(N(CCCl)CCCl)cc1)[C@@H]1O[C@H](CO)[C@@H](O)[C@H](O[C@H](C)C(=O)O)[C@H]1NC(C)=O , please.
Return: 7

# input for lookup
Enquiry: Recorded GI50 of CON(CCCCc1ccc(N(CCCl)CCCl)cc1)C1OCC(O)C1O (stereo not shown) [Compound 61] , please.
Return: 2.1
